Each recorded value in this set is attributed to the array DNA melting data of Ke et al. (doi:10.1101/2024.01.08.574731).

Assay: melting temperature; fluorescence melt of hairpins on a sequencing array, two-state fit, raised by 9.35 °C to match UV melts
Conditions: sodium 0.088 M
# Lookup of reported Tm keyed by entry

Req: Using the record for GATCACTCCGTGATC ((((((...)))))) , state its measured Tm.
Resp: 59.2 °C

Req: Using the record for GAGTGCGAAAGCAATCTC ((((((....)))..))) , state its measured Tm.
Resp: 53.7 °C

Req: Using the record for GCCCAGCGAAAGCCTGGC (((..((....))..))) , state its measured Tm.
Resp: 56.1 °C

Req: Using the record for GCGTAAAGACGC ((((....)))) , state its measured Tm.
Resp: 46.9 °C

Req: Using the record for GCCGCCGCGAAAGCGGGC (((..(((....)))))) , state its measured Tm.
Resp: 64 °C
